Reported inhibition is given for each of the following molecules.
assayed-system: Lethal factor (Bacillus anthracis) (UniProt P15917)
Sequence (P15917 whole entry, looked up): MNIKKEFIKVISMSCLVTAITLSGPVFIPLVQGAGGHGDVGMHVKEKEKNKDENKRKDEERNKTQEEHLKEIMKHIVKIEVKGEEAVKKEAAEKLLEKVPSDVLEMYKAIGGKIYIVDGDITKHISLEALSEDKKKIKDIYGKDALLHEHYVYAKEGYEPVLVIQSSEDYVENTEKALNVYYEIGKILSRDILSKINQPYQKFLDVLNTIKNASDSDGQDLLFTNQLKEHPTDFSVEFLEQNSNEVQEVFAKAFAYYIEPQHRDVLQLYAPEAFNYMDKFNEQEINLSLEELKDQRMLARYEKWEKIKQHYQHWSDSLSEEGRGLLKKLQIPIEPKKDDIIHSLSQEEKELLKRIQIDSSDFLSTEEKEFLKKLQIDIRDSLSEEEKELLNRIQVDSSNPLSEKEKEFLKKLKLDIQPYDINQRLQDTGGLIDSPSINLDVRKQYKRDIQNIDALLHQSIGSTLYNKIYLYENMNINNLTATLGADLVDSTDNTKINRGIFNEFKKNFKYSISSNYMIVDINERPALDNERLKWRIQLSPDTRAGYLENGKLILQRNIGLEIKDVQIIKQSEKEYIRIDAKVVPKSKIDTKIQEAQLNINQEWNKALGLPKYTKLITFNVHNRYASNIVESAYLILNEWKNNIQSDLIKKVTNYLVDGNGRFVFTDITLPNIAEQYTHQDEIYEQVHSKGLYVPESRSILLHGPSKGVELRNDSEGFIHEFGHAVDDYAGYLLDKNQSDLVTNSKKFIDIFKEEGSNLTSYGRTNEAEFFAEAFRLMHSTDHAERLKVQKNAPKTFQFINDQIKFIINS
assay-overview: Lethal factor protease inhibitors, Bacillus anthracis, multiplex microsphere cleavage assay, validation set (AID 588461)
experimental-context: flow cytometry, at 10 µM, hits give high values
A number alone suffices; assume %.

Solved entries (count: 8):
{"molecule": "N/C(=N/OS(=O)(=O)c1ccc([N+](=O)[O-])cc1)c1ccncc1", "readout-units": "%", "inhibition": 1}
{"molecule": "Cc1ccccc1C(OCCN(C)C)c1ccccc1 (stereo unspecified)", "readout-units": "%", "inhibition": 2.5}
{"molecule": "O=C1C(O)CC2c3ccccc3CC3(CCCC3)N12 (stereo unspecified)", "readout-units": "%", "inhibition": -6}
{"molecule": "CCOC(=O)N1CCc2[nH]c3ccc(C)cc3c2C1", "readout-units": "%", "inhibition": 1.9}
{"molecule": "O=C(N/N=C/c1ccc([N+](=O)[O-])o1)c1ccc(O)cc1", "readout-units": "%", "inhibition": -11.9}
{"molecule": "CCOc1ccc(C(=O)/C=C/c2cc(OC)c(OC)c(OC)c2)cc1", "readout-units": "%", "inhibition": 4.5}
{"molecule": "CC(=O)c1cc2c(cc1NC(=O)c1ccco1)OCCO2", "readout-units": "%", "inhibition": -1.9}
{"molecule": "CC(C)Cc1cc(C(=O)N2CCC(N3CCC(C(=O)N4CCCC4)CC3)CC2)n[nH]1", "readout-units": "%", "inhibition": -0.4}

(Q) Find the recorded inhibition belonging to CC(C)[N+](C)(CCC(C(N)=O)(c1ccccc1)c1ccccc1)C(C)C and report it.
(A) -9.4

(Q) Find the recorded inhibition belonging to C(=C\c1ccccc1)/CN1CCN(C(c2ccccc2)c2ccccc2)CC1 and report it.
(A) -9.2

(Q) Find the recorded inhibition belonging to Cc1nnc(NS(=O)(=O)c2ccc(N)cc2)s1 and report it.
(A) -2.8

---

assayed-system: Botulinum neurotoxin type A (Clostridium botulinum) (UniProt P0DPI0)
Sequence (P0DPI0 whole entry, looked up): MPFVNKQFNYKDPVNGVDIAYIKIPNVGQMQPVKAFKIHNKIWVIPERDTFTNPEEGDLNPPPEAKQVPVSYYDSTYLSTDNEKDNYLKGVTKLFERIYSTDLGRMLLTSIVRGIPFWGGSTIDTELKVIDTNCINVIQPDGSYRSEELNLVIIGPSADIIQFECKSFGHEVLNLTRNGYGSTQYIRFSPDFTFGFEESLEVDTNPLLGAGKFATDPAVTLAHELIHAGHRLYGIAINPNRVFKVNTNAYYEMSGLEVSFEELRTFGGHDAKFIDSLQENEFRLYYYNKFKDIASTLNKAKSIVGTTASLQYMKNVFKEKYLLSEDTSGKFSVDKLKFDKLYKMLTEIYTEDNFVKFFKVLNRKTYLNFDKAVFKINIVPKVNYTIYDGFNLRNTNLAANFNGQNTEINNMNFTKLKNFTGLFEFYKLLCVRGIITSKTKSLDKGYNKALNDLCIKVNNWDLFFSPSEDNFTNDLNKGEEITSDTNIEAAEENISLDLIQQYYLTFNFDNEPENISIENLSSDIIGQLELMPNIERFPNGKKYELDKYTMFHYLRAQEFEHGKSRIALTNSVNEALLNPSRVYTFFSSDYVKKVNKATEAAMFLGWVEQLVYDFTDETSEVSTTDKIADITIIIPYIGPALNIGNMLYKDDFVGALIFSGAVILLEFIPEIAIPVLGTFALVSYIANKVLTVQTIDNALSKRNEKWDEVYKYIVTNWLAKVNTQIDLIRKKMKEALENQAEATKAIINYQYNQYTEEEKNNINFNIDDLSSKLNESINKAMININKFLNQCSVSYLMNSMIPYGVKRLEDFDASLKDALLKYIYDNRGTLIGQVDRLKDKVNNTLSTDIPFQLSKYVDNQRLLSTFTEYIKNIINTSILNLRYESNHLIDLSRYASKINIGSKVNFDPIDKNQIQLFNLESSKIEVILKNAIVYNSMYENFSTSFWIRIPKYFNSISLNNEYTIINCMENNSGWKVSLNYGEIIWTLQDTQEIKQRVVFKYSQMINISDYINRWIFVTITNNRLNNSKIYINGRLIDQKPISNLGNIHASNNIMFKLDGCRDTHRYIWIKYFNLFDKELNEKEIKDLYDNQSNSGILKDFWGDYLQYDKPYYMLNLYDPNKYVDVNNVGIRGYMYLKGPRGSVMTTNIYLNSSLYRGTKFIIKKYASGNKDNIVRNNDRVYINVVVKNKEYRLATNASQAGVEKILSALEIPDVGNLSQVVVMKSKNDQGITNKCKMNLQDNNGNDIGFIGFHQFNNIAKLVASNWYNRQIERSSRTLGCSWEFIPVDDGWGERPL
assay-overview: BoNT/A light chain protease inhibitors, biochemical, multiplex microsphere flow cytometry, validation set (AID 588460)
experimental-context: at 10 µM, hits give high values
measured-attribute: inhibition (%)
A number alone suffices; assume %.

Solved entries (count: 10):
{"compound": "CC(NCCC(c1ccccc1)c1ccccc1)c1ccccc1 (configuration not stated)", "inhibition [%]": -1.1}
{"compound": "COc1ccc(CCNC(=S)NC(=O)/C=C/c2ccc(C)cc2)cc1OC", "inhibition [%]": -1.3}
{"compound": "CC(C)C(=O)Nc1cccnc1", "inhibition [%]": 0.9}
{"compound": "COC(=O)CSc1nc2ccc(N)cc2s1", "inhibition [%]": -1}
{"compound": "CCO/C([O-])=N/c1c[n+](N2CCOCC2)no1", "inhibition [%]": 0.5}
{"compound": "COc1cccc(CC2CC(=O)N(c3ccc4c(C)cc(=O)oc4c3)C2=O)c1 (configuration not stated)", "inhibition [%]": -0.1}
{"compound": "CCn1cc(CN2N=C(C)CC2c2ccccc2)c(C)n1 (configuration not stated)", "inhibition [%]": 0}
{"compound": "Clc1ccc2c(c1)CCc1cccnc1C2=C1CCNCC1", "inhibition [%]": -0.7}
{"compound": "COc1ccc(-c2cc(=O)oc3cc(OC(C)C(=O)O)ccc23)cc1 (configuration not stated)", "inhibition [%]": 2}
{"compound": "CN(C)CCC(c1ccccc1)c1ccccn1 (configuration not stated)", "inhibition [%]": -0.2}

(Q) Find the recorded inhibition belonging to Clc1cc(-c2ccc(/C=N/n3cnnc3)o2)ccc1Br and report it.
(A) -0.3

(Q) Find the recorded inhibition belonging to COc1ccccc1C(=O)Nc1cc2cc(Br)ccc2oc1=O and report it.
(A) 1.1

---

assayed-system: Botulinum neurotoxin type A (Clostridium botulinum) (UniProt P0DPI0)
assay-overview: BoNT/A light chain protease inhibitors, biochemical, multiplex microsphere flow cytometry, validation set (AID 588460)
experimental-context: at 10 µM, hits give high values
measured-attribute: inhibition (%)
A number alone suffices; assume %.

Solved entries (count: 5):
{"molecule": "Cc1cccc(N2CCN(C(=S)c3ccccc3)CC2)c1", "readout-units": "%", "inhibition": -1.9}
{"molecule": "C[C@]12C=CC(=O)C=C1CCC1C3CC[C@](O)(C(=O)CO)[C@@]3(C)CC3OC312 (stereo partly specified)", "readout-units": "%", "inhibition": -2.7}
{"molecule": "CSc1ccc(CN2CCN(CCC(C)C)C(CCO)C2)cc1 (stereo unspecified)", "readout-units": "%", "inhibition": 0.1}
{"molecule": "Cc1ccc(S(=O)(=O)N[C@@H](Cc2ccccc2)C(=O)CCl)cc1", "readout-units": "%", "inhibition": 1.2}
{"molecule": "C=CCn1c(N2CCCCCC2)nc2c1c(=O)n(C)c(=O)n2C", "readout-units": "%", "inhibition": 1.4}

(Q) Find the recorded inhibition belonging to COc1ccc(CCNC(=O)c2ccc(Cl)cc2)cc1OC and report it.
(A) -1.4

---

assayed-system: Botulinum neurotoxin type A (Clostridium botulinum) (UniProt P0DPI0)
assay-overview: BoNT/A light chain protease inhibitors, biochemical, multiplex microsphere flow cytometry, validation set (AID 588460)
experimental-context: at 10 µM, hits give high values
measured-attribute: inhibition (%)
A number alone suffices; assume %.

{"compound": "O=C(O)CCn1cnc2ccccc2c1=O", "assayed-system": "Botulinum neurotoxin type A (Clostridium botulinum) (UniProt P0DPI0)", "readout-units": "%", "reading": 0.3}
{"compound": "COc1ccc(/C=C2\\CC/C(=C\\c3ccc(OC)c(OC)c3)C2=O)cc1OC", "assayed-system": "Botulinum neurotoxin type A (Clostridium botulinum) (UniProt P0DPI0)", "readout-units": "%", "reading": 0.1}
{"compound": "NC12CC3CC(C1)CC(O)(C3)C2", "assayed-system": "Botulinum neurotoxin type A (Clostridium botulinum) (UniProt P0DPI0)", "readout-units": "%", "reading": -0.4}
{"compound": "CC12CCC(C(=O)N3CCc4ccccc43)(CC1=O)C2(C)C (stereo unspecified)", "assayed-system": "Botulinum neurotoxin type A (Clostridium botulinum) (UniProt P0DPI0)", "readout-units": "%", "reading": -0.7}

(Q) Find the recorded inhibition belonging to Clc1ccc(OCCCN2CCCCC2)c(Br)c1 and report it.
(A) 0.2

(Q) Find the recorded inhibition belonging to CC1(C)CC(NC(=O)C23CCC(C)(C(=O)C2=O)C3(C)C)CC(C)(C)N1 (stereo unspecified) and report it.
(A) -0.7

---

Tested on: Botulinum neurotoxin type F light chain protease (Clostridium botulinum)
assay-overview: Botulinum neurotoxin type F light chain protease inhibition, multiplex microsphere flow cytometry, validation set (AID 588459)
experimental-context: multiplex microsphere protease substrate cleavage assay, at 10 µM, hits give high values
Reported inhibition is given for each of the following compounds.
A number alone suffices; assume %.

Solved entries (count: 2):
{"compound": "NC(N)=N/N=C/c1ccc(OS(=O)(=O)c2ccccc2)cc1", "inhibition [%]": -5.1}
{"compound": "COc1ccc(CCNC(=S)NC(=O)/C=C/c2ccc(C)cc2)cc1OC", "inhibition [%]": 0.1}

(Q) Find the measured inhibition: item CC(C)[N+](C)(CCOC(=O)C1c2ccccc2Oc2ccccc21)C(C)C , target or system Botulinum neurotoxin type F light chain protease (Clostridium botulinum).
(A) -0.1

(Q) Find the measured inhibition: item COc1ccccc1-c1c(C(F)(F)F)oc2cc(OC(=O)c3ccc([N+](=O)[O-])cc3)ccc2c1=O , target or system Botulinum neurotoxin type F light chain protease (Clostridium botulinum).
(A) 0.7

(Q) Find the measured inhibition: item COC(=O)c1ccc(NC(=O)c2ccccc2SC)cc1 , target or system Botulinum neurotoxin type F light chain protease (Clostridium botulinum).
(A) -4.7

---

assayed-system: Botulinum neurotoxin type A (Clostridium botulinum)
assay-overview: BoNT/A light chain protease inhibitors, biochemical, multiplex microsphere flow cytometry, validation set (AID 588460)
experimental-context: at 10 µM, hits give high values
measured-attribute: inhibition (%)
A number alone suffices; assume %.

{"molecule": "CN(C)C(=O)C(CCN1CCC(O)(c2ccc(Cl)cc2)CC1)(c1ccccc1)c1ccccc1", "assayed-system": "Botulinum neurotoxin type A (Clostridium botulinum)", "inhibition, %": -1.4}
{"molecule": "C[C@@H]1C[C@H]2[C@@H]3CCC4=CC(=O)C=C[C@]4(C)[C@@]3(F)[C@@H](O)C[C@]2(C)[C@H]1C(=O)CO", "assayed-system": "Botulinum neurotoxin type A (Clostridium botulinum)", "inhibition, %": -1.7}
{"molecule": "Cc1ccc(C(=O)NC(=S)NCCCN2CCOCC2)cc1", "assayed-system": "Botulinum neurotoxin type A (Clostridium botulinum)", "inhibition, %": -1.4}
{"molecule": "OC(CCCN1CCCCC1)(c1ccccc1)c1ccccc1", "assayed-system": "Botulinum neurotoxin type A (Clostridium botulinum)", "inhibition, %": 0}
{"molecule": "COc1cccc2c(=O)c(C/C=C(/C)Cl)c(C)[nH]c12", "assayed-system": "Botulinum neurotoxin type A (Clostridium botulinum)", "inhibition, %": -1.6}
{"molecule": "C#CCN(C)CCCOc1ccc(Cl)cc1Cl", "assayed-system": "Botulinum neurotoxin type A (Clostridium botulinum)", "inhibition, %": -1.4}

(Q) Find the recorded inhibition belonging to COc1cc(=O)n(C)c2ccccc12 and report it.
(A) -2.1

(Q) Find the recorded inhibition belonging to COc1cc2c(cc1OC)C(c1cc(OC)c(OC)c(OC)c1)NCC2 (stereo unspecified) and report it.
(A) -0.2

(Q) Find the recorded inhibition belonging to CSCCC(NC(=O)OC(C)(C)C)C(=O)Oc1ccc2c(=O)c(-c3ccc4c(c3)OCCO4)coc2c1 (stereo unspecified) and report it.
(A) -0.4

(Q) Find the recorded inhibition belonging to COc1ccc(C(=O)O)cc1F and report it.
(A) -0.6

(Q) Find the recorded inhibition belonging to Fc1ccc(NC(=S)Nc2ccccc2Cl)cc1 and report it.
(A) -0.7
